B1: TRAF3IP2 (parent)
chain: APWNYHYHCPGSPDHQVPYGHDYP

Variants of: B1
protocol.summary: protein stability index of a GFP-peptide fusion (GPS, HEK-293T) (PSI 1-6); higher = more stable;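 further: lentivirally expressed fusions sorted by FACS into six bins by GFP to DsRed ratio, PSI derived from sequencing read proportions per bin multiplied by bin number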
settings: c terminus: a fixed tail appended
Please provide measured protein stability index for the entries that follow.
// keep it numeric: no unit symbol after the value

Could you share which protein stability index value was measured for `P18T` ?
2.37

Same question for `Q16Y` please.
2.09

Same question for `D14T` please.
1.78

Same question for `G11K` please.
1.92

Same question for `G20T` please.
2.66

Same question for `N4A` please.
1.7

Same question for `D22C` please.
1.41

Same question for `W3K` please.
3.05

Same question for `D14G` please.
2.1

Same question for `P18L` please.
2.21

Same question for `P24N` please.
2.93

Same question for `Y23K` please.
3.12

Same question for `D22I` please.
1.16

Same question for `Y23P` please.
3.06

Same question for `C9G` please.
2.05

Same question for `A1V` please.
1.71

Same question for `Y23M` please.
2.25
